tested on: subcutaneously pentetrazol-injected model (scPTZ); experiment: Subcutaneously pentetrazol-injected model (scPTZ) test; assay type: in vivo, mice; conditions: Mus musculus, po, 1 h, 50 mg/kg oral, Slc: ddY male mice, 3 per group, pentetrazol 85 mg/kg s.c. after 1 hour, observed 30 minutes for clonic convulsion; read-out: scPTZ (positive number/tested number) (converted)
ASSAY_ENDPOINT: responders at 50 mg/kg (%)

1) NC(=O)Cc1ccccc1-c1ccc(Br)cc1 [Example 49, 2-(4′-Bromobiphenyl-2-yl)acetamide] ... 0
2) NC(=O)Cc1ccccc1-c1cccc(OC(F)(F)F)c1 [Example 79] ... 33.3
3) NC(=O)C(F)(F)c1ccccc1-c1cccc(F)c1 [Example 170] ... 33.3
4) CNC(=O)Cc1ccc(F)cc1-c1ccccc1F [Example 42] ... 33.3
5) NC(=O)C(O)c1ccccc1-c1ccccc1F (centres unmarked) [Example 60] ... 33.3

Where do these numbers come from? They come from patent US20120142771A1.
